# conditionSet: [M+H]+; instrument: DT; single field, calibrated with Agilent tune mix (Agilent)
readoutKind: collision cross section (N2) (Å²)

c1ccc2[nH]ccc2c1 :: 121
O=C(O)Cc1c[nH]c2ccccc12 :: 136.2
CCCCCCC(N)C(=O)O (racemic) :: 147.1
O=c1c(O)c(-c2ccc(O)c(O)c2)oc2cc(O)cc(O)c12 :: 166.7
COc1ccc2[nH]cc(CC(=O)O)c2c1 [5-Methoxyindoleacetate] :: 144

====

# conditionSet: [M+K]+; instrument: DT; single field, calibrated with ESI Low Concentration Tuning Mix (Agilent)
readoutKind: collision cross section (N2) (Å²)

C[C@]12C[C@H](O)[C@H]3[C@@H](CCC4=CC(=O)CC[C@@]43C)[C@@H]1CC[C@@H]2C(=O)CO [CORTICOSTERONE] :: 208.4
C[C@]12CCC(=O)C=C1CC[C@@H]1[C@@H]2[C@@H](O)C[C@@]2(C)[C@H]1CC[C@]2(O)C(=O)CO [CORTISOL] :: 210.7
Nc1nc(=O)c2ncn([C@H]3C[C@H](O)[C@@H](CO)O3)c2[nH]1 [DEOXYGUANOSINE] :: 171.4
OC[C@H]1O[C@H](O[C@H]2O[C@H](CO)[C@@H](O)[C@H](O)[C@H]2O)[C@H](O)[C@@H](O)[C@@H]1O [TREHALOSE] :: 179.7

====

# conditionSet: [M-H]-; instrument: DT; single field, calibrated with Agilent tune mix (Agilent)
readoutKind: collision cross section (N2) (Å²)

CCCCC/C=C\C/C=C\C/C=C\C/C=C\CCCCCC(=O)OC[C@H](COP(=O)(O)OC[C@@H](O)CO)OC(=O)CCCCCCC/C=C\CCCCCCCC :: 283.4
CCCCC/C=C\C/C=C\CCCCCCCCCCCC(=O)O[C@H](COC(=O)CCCCCCC/C=C\C/C=C\CCCCC)COP(=O)(O)O[C@H]1C(O)C(O)C(O)[C@@H](O)C1O (stereo partly drawn) :: 298.2
CCCCCCCC/C=C\CCCCCCCC(=O)OC[C@@H](O)COP(=O)(O)OC[C@H](N)C(=O)O :: 220.5
CCCCCCCCCC/C=C\CCCCCCCCCC(=O)OC[C@@H](O)COP(=O)(O)OC[C@H](N)C(=O)O :: 234.2
CCCC/C=C\C/C=C\CCCCCCCC(=O)OC[C@H](COP(=O)(O)OCCN)OC(=O)CCCCCCC/C=C\CCCCCCCCC :: 266.1
CCCC/C=C\CCCCCCCC(=O)OC[C@H](COP(=O)(O)OCCN)OC(=O)CCCCCCCCC/C=C\C/C=C\CCCCC :: 260.2
CCCCC/C=C\C/C=C\CCCCCCCCCC(=O)O[C@H](COC(=O)CCCCCCCCCCCCC)COP(=O)(O)OCCN :: 262
CCCCC/C=C\C/C=C\CCCCCCCC(=O)O[C@H](CO/C=C\CCCCCCCCCCCCCC)COP(=O)(O)OCCN :: 261.1
CCCCC/C=C\C/C=C\CCCCCCCCCCCC(=O)O[C@H](COC(=O)CCCCCCCCCCCC)COP(=O)(O)OCCN :: 264.9
CCCCC/C=C\C/C=C\CCCCCCCCCC(=O)O[C@H](COC(=O)CCCCCCCCCCCCCCC)COP(=O)(O)OCCN :: 268.5
CCCCCCCCCC/C=C\CCCCCCCCCC(=O)O[C@H](COC(=O)CCCCCCCCCCCCC)COP(=O)(O)OC[C@H](N)C(=O)O :: 279.1
CCCCCCCC/C=C\CCCCCCCCCC(=O)O[C@H](COC(=O)CCCCCCCCCCCCC)COP(=O)(O)O :: 255.6
CCCCCCCC/C=C\CCCCCCCCCC(=O)O[C@H](COC(=O)CCCCCCCCCCC)COP(=O)(O)O :: 249
